assay: NCI Yeast Anticancer Drug Screen. Data for the CLN2oe strain (AID 163);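 note: 0% = growth of vehicle-only control cultures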; conditions: S. cerevisiae CLN2oe strain, at 11.0 µM, active compounds read high
The panel holds about 79,000 compounds, 15% with a hit somewhere; the sample as a whole holds those more often.
Reported growth inhibition values follow for various compounds
Give the number; % is assumed, so skip it.

query: Please give the measured growth inhibition for this compound: c1cc2c(cc1C1OC[C@H]3[C@@H](c4ccc5c(c4)OCO5)OC[C@@H]13)OCO2 (stereo not given in full)
result: -10

query: Same read-out for O=C1OC2C(O1)C1(Cl)C(Cl)=C(Cl)C2(Cl)C1(Cl)Cl (stereo not given) ?
result: -6

query: Same read-out for CC(=O)O/C(=C1\C[C@H]2[C@@H]3CC=C4C[C@@H](OC(C)=O)CC[C@]4(C)[C@H]3CC[C@]2(C)C1=O)C(F)(F)F ?
result: 2

query: Same read-out for Cc1nc2ccccc2cc1C[N+]12CN3CN(CN(C3)C1)C2 ?
result: 4

query: Same read-out for CS(=O)(=O)OCCN(CCOS(C)(=O)=O)c1ccc(C=O)cc1 ?
result: 15

query: Same read-out for CCc1cccc(C(C)C)c1NC1=C([n+]2ccc(C)cc2)C(=O)c2ccccc2C1=O ?
result: 1

query: Same read-out for C=CC[N+]12CN3CN(CN(C3)C1)C2 ?
result: -17

query: Same read-out for CN(N=O)C(=O)NNC(=O)N(C)N=O ?
result: -7

query: Same read-out for Nc1nc(N)c2c(Cl)c(CNc3ccc(C(=O)NC(CC(=O)O)C(=O)O)cc3)ccc2n1 (stereo not given) ?
result: 12

query: Same read-out for CC[PH+](CC)CC.CC[PH+](CC)CC.[Au] ?
result: 23
